- Test system: female adult CSMA-strain houseflies
- run-description: Test Example 2: topical application to thorax, mortality after 24 hours
- Format: in vivo, housefly
- condition-set: topical, 0.5 μl acetone solution to thorax; 24 hours
- Method: In the following test examples, the "racemate" (conventional product) of each of the compounds of the formula (I) was formulated in the same procedures as in each test example and then used as a reference compound. The compounds of this invention, (1), (2), (3), (4) and (5) were diluted with acetone to a predetermined concentration, and 0.5 μl of each solution was topically applied to thorax of female adult CSMA-strain houseflies with a microsyringe. […]
Measured LD50 (median lethal dose) by item

compound: CC(C)C(C(=O)OC(C#N)c1cccc(Oc2ccc(Br)cc2)c1)c1ccc(Cl)cc1 (racemic) [(c), reference compound]
LD50 (median lethal dose): 0.080 μg/insect

compound: CC(C)[C@H](C(=O)O[C@H](C#N)c1cccc(Oc2ccc(F)cc2)c1)c1ccc(Cl)cc1
LD50 (median lethal dose): 0.010 μg/insect

compound: CC(C)[C@H](C(=O)O[C@H](C#N)c1cccc(Oc2ccc(Br)cc2)c1)c1ccc(Cl)cc1
LD50 (median lethal dose): 0.018 μg/insect

compound: CC(C)C(C(=O)OC(C#N)c1cccc(Oc2ccc(F)cc2)c1)c1ccc(Cl)cc1 (racemic) [Reference Compound (a), reference compound]
LD50 (median lethal dose): 0.041 μg/insect

compound: CC(C)C(C(=O)OC(C#N)c1cccc(Oc2ccc(Cl)cc2)c1)c1ccc(Cl)cc1 (racemic) [(b), reference compound]
LD50 (median lethal dose): 0.062 μg/insect

compound: CC(C)[C@H](C(=O)OC(C#N)c1cccc(Oc2ccc(F)cc2)c1)c1ccc(Cl)cc1 (some centres unmarked)
LD50 (median lethal dose): 0.019 μg/insect

compound: CC(C)[C@H](C(=O)O[C@H](C#N)c1cccc(Oc2ccc(Cl)cc2)c1)c1ccc(Cl)cc1
LD50 (median lethal dose): 0.016 μg/insect

compound: CC(C)[C@H](C(=O)OC(C#N)c1cccc(Oc2ccc(Br)cc2)c1)c1ccc(Cl)cc1 (some centres unmarked)
LD50 (median lethal dose): 0.035 μg/insect
